target: hSkM1 isoform of Na+ channels (Homo sapiens); experiment: Electrophysiological Assay 1: whole-cell patch-clamp of Na+ currents in HEK-293 cells expressing hSkM1; conditions: HEK-293 cells stably expressing hSkM1; concentration that produces half maximal inhibition
Sequence (P35499 whole entry, canonical isoform): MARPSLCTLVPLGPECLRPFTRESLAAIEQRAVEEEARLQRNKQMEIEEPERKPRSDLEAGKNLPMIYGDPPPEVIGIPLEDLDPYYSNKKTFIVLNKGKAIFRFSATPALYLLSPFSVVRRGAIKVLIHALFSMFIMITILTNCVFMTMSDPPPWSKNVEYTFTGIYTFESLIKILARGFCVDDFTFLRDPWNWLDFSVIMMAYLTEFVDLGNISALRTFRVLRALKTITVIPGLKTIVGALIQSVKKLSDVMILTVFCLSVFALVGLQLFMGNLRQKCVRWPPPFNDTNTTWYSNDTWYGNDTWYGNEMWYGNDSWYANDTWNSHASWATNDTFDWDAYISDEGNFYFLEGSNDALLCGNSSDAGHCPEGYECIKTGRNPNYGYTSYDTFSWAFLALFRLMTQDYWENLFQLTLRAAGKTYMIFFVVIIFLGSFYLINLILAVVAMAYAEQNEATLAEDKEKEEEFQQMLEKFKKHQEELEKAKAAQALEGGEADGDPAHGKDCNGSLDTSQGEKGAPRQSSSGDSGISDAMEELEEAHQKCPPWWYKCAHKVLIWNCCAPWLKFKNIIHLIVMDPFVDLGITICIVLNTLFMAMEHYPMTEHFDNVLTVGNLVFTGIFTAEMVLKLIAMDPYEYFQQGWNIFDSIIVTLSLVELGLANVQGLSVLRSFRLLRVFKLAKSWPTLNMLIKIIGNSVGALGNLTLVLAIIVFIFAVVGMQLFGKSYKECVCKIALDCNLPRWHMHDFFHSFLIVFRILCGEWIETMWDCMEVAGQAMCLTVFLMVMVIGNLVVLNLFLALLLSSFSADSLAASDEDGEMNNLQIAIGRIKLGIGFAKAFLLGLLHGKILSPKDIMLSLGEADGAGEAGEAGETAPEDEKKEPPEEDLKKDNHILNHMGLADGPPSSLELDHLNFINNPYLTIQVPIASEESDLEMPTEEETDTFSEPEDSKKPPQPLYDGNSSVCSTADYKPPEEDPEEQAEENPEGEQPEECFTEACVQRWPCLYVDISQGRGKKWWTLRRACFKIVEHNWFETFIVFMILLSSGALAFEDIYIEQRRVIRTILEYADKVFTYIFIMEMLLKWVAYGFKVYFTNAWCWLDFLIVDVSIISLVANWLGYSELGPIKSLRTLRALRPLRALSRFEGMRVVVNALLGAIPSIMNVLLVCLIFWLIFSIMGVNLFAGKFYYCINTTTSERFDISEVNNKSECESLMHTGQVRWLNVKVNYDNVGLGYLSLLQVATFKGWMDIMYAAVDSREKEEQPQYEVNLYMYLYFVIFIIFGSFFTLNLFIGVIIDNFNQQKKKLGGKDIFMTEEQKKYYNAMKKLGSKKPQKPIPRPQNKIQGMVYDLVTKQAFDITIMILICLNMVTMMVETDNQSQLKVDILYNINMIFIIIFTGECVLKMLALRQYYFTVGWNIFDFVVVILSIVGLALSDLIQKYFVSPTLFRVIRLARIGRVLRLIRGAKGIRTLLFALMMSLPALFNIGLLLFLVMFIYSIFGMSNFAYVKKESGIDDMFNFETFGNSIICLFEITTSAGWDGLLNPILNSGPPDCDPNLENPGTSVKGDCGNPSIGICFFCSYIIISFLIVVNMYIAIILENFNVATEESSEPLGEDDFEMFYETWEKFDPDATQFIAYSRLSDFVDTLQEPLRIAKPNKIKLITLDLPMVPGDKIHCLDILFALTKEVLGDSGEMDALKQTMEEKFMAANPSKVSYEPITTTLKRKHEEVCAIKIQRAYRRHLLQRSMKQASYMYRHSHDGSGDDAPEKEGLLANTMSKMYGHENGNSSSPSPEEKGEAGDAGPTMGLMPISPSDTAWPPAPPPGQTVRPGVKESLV
QUANTITY_MEASURED: log10 Ki (log10 of the value in nM)
Note the log scale: values are log10 of Ki expressed in nM.

Reference set, count: 5
COMPOUND	QUANTITY_MEASURED	VALUE_REPORTED
NC(=O)n1ccc(-c2ccc(Oc3ccc(F)cc3)cc2)n1	log10 Ki	0.90
CSc1cc(-c2ccc(Oc3ccccc3)cc2)nn1C(N)=O	log10 Ki	1.90
NC(=O)c1nc(-c2ccc(Oc3ccc(F)cc3)c(F)c2)cs1	log10 Ki	1.30
NC(=O)n1ccc(-c2ccc(Oc3ccccc3)cc2)n1	log10 Ki	1.18
NC(=O)n1ccc(-c2ccc(Oc3ccc(F)cc3F)cc2)n1	log10 Ki	1.00

Input: Form field: reported log10 Ki of `NC(=O)n1ccc(-c2ccc(Oc3ccc(Cl)cc3F)cc2)n1`
Output: 0.48

Input: Form field: reported log10 Ki of `NC(=O)n1ccc(-c2ccc(Oc3ccc([N+](=O)[O-])cc3)cc2)n1`
Output: 1.04

Input: Form field: reported log10 Ki of O=[N+]([O-])c1ccc(Oc2ccc(-c3cc[nH]n3)cc2)cc1 [5-[4-(4-nitrophenoxy)phenyl]-1H-pyrazole, 3-[4-(4-nitrophenoxy)phenyl]-1H-pyrazole]
Output: 2.04
